Target: H-NSW, variant of H-NS with a tryptophan at its C-terminus (E. coli) (UniProt P0ACF8)
Experiment: fluorescence polarisation; steady-state tryptophan anisotropy; 2 uM H-NSW with ~30 nM to ~140 uM H-NS (tyrosine variant); excitation 295 nm; 170 mM ionic strength, 5 °C and 37 °C; apparent; fit to monomer-dimer (1:1) equilibrium
pKd: −log10 of the molar value.
QUANTITY_NAME: pKd

Data request: For the binder H-NS (residues 1-59 of the N-terminal domain), the tyrosine variant (domain or fragment) MSEALKILNNIRTLRAQARESTLETLEEMLEKLEVVVNERREEESAAAAEVEERTRKLY , report pKd.
Data returned: 3.82 to 4.00
